method: Plasma incubations (human plasma stability)
Type: in vitro ADME
test conditions: 37° C.
reported endpoint: Human Plasma Stability % rem. @ 1 hr (%)

INSERT INTO results (molecule, observed_value) VALUES
  ('CC(C)C[C@H](NC(=O)c1ccc(N2CCN(C)CC2)cc1)C(=O)N1CC[C@H]2OCC(=O)[C@H]21 [Example 1, reference compound]', 95),
  ('CN1CCN(c2ccc(C(=O)N[C@@H](CC(C)(C)C)C(=O)N3CC[C@H]4OCC(=O)[C@H]43)cc2)CC1', 95),
  ('CCC(C)[C@H](NC(=O)c1ccc(N2CCN(C)CC2)cc1)C(=O)N1CC[C@H]2OCC(=O)[C@H]21 (stereo in doubt)', 91),
  ('CCCN1CCN(c2ccc(C(=O)N[C@@H](CC(C)(C)C)C(=O)N3CC[C@H]4OCC(=O)[C@H]43)cc2)CC1', 92),
  ('CC(C)C[C@H](NC(=O)c1ccc(C(C)(C)C)cc1)C(=O)N1CC[C@H]2OCC(=O)[C@H]21 [Prior art compound 23, reference compound]', 75),
  ('CCN1CCN(c2ccc(C(=O)N[C@@H](CC(C)C)C(=O)N3CC[C@H]4OCC(=O)[C@H]43)cc2)CC1 [Example 2, reference compound]', 93),
  ('CN1CCN(c2ccc(C(=O)N[C@H](C(=O)N3CC[C@H]4OCC(=O)[C@H]43)C(C)(C)C)cc2)CC1', 93),
  ('COCCN1CCN(c2ccc(C(=O)N[C@@H](CC(C)(C)C)C(=O)N3CC[C@H]4OCC(=O)[C@H]43)cc2)CC1', 90);

---

assay system: Human recombinant cathepsin K (Homo sapiens)
Construct: purchased B. Turk, Josef, Stefan Institute, Ljubljana, Slovenia
Sequence (P43235 115-329): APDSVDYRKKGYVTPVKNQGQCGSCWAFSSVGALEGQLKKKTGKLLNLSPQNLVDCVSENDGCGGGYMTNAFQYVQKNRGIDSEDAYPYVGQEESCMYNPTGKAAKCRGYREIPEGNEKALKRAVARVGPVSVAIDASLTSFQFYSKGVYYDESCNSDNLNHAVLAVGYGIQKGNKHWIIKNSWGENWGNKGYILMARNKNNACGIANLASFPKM
method: In vitro cathepsin Ki inhibition measurements
Assay type: biochemical
test conditions: read-out: In vitro Ki (nM) vs Cath K
reported endpoint: Ki (nM)

Past entries and their recorded results:
INSERT INTO results (compound, reported_endpoint, observed_value) VALUES
  ('CCC(C)[C@H](NC(=O)c1ccc(N2CCN(C)CC2)cc1)C(=O)N1CC[C@H]2OCC(=O)[C@H]21 (stereo in doubt) [Example 9]', 'Ki', 5),
  ('CCCN1CCN(c2ccc(C(=O)N[C@@H](CC(C)(C)C)C(=O)N3CC[C@H]4OCC(=O)[C@H]43)cc2)CC1 [Example 4]', 'Ki', 12),
  ('CN1CCN(c2ccc(C(=O)N[C@@H](CC(C)(C)C)C(=O)N3CC[C@H]4OCC(=O)[C@H]43)cc2)CC1 [Example 3]', 'Ki', 4);

A = COCCN1CCN(c2ccc(C(=O)N[C@@H](CC(C)(C)C)C(=O)N3CC[C@H]4OCC(=O)[C@H]43)cc2)CC1 [Example 5]
B = CN1CCN(c2ccc(C(=O)N[C@H](C(=O)N3CC[C@H]4OCC(=O)[C@H]43)C(C)(C)C)cc2)CC1 [Example 8]
query: Recorded Ki values differ for A and B ; which one is higher? Record your answer as the label of the chosen record.
result: A

---

method: Liver microsomal incubations (HLM stability)
Assay type: in vitro ADME
test conditions: human liver microsomes
reported endpoint: HLM % rem. @ 1 hr (%)

INSERT INTO assay_data (molecule, u, observed_value) VALUES
  ('CC(C)C[C@H](NC(=O)c1ccc(C(C)(C)C)cc1)C(=O)N1CC[C@H]2OCC(=O)[C@H]21 [Prior art compound 23, reference compound]', '%', 70),
  ('COCCN1CCN(c2ccc(C(=O)N[C@@H](CC(C)(C)C)C(=O)N3CC[C@H]4OCC(=O)[C@H]43)cc2)CC1', '%', 92),
  ('CN1CCN(c2ccc(C(=O)N[C@@H](CC(C)(C)C)C(=O)N3CC[C@H]4OCC(=O)[C@H]43)cc2)CC1', '%', 96),
  ('CCCN1CCN(c2ccc(C(=O)N[C@@H](CC(C)(C)C)C(=O)N3CC[C@H]4OCC(=O)[C@H]43)cc2)CC1', '%', 82),
  ('CCC(C)[C@H](NC(=O)c1ccc(N2CCN(C)CC2)cc1)C(=O)N1CC[C@H]2OCC(=O)[C@H]21 (stereo in doubt)', '%', 94),
  ('CN1CCN(c2ccc(C(=O)N[C@H](C(=O)N3CC[C@H]4OCC(=O)[C@H]43)C(C)(C)C)cc2)CC1', '%', 89),
  ('CCN1CCN(c2ccc(C(=O)N[C@@H](CC(C)C)C(=O)N3CC[C@H]4OCC(=O)[C@H]43)cc2)CC1 [Example 2, reference compound]', '%', 88),
  ('CC(C)C[C@H](NC(=O)c1ccc(N2CCN(C)CC2)cc1)C(=O)N1CC[C@H]2OCC(=O)[C@H]21 [Example 1, reference compound]', '%', 95);

---

method: LogD determinations (shake-flask, octanol/PBS)
Format: physicochemical
test conditions: 1-octanol/phosphate buffered saline; pH 7.4; ion-count method
Method: LogD(PBS) determinations were performed in 96 well microtitre plates using a miniaturised “shake-flask” method. In brief, compounds were taken from 10 mM DMSO stock solutions and added to wells containing equal volumes of phosphate buffered saline (10 mM; pH 7.4) (PBS) and 1-octanol (Sigma-Aldrich, Poole, Dorset, UK) to give a final concentration of 50 μM. […] The PBS layer was analysed by reverse phase HPLC with mass spectrometric detection, using single ion monitoring of the [M+H]^+ species. […]
reported endpoint: logD

Past entries and their recorded results:
INSERT INTO measurements (compound, observed_value) VALUES
  ('CN1CCN(c2ccc(C(=O)N[C@@H](CC(C)(C)C)C(=O)N3CC[C@H]4OCC(=O)[C@H]43)cc2)CC1 [Example 3]', 0.87),
  ('COCCN1CCN(c2ccc(C(=O)N[C@@H](CC(C)(C)C)C(=O)N3CC[C@H]4OCC(=O)[C@H]43)cc2)CC1 [Example 5]', 1.51),
  ('CCC(C)[C@H](NC(=O)c1ccc(N2CCN(C)CC2)cc1)C(=O)N1CC[C@H]2OCC(=O)[C@H]21 (stereo in doubt) [Example 9]', 1.15);

A = CN1CCN(c2ccc(C(=O)N[C@H](C(=O)N3CC[C@H]4OCC(=O)[C@H]43)C(C)(C)C)cc2)CC1 [Example 8]
B = CCCN1CCN(c2ccc(C(=O)N[C@@H](CC(C)(C)C)C(=O)N3CC[C@H]4OCC(=O)[C@H]43)cc2)CC1 [Example 4]
query: Consider entries A and B . Which has the numerically lower logD? Record your answer as the label of the chosen record.
result: A
